Experiment: Antioxidant activity assessed as DPPH radical scavenging activity measured as rate constant after 10 secs by UV-visible spectrophotometry
Format: physicochemical
Settings: 10 s
Each entry below lists one item and its recorded K value.
MEASUREMENT NAME: K (M⁻¹ s⁻¹)

1) CC[C@H](CC[C@@H](C)[C@H]1CC[C@H]2[C@@H]3CC=C4C[C@@H](OC(=O)/C=C/c5ccc(O)c(OC)c5)CC[C@]4(C)[C@H]3CC[C@]12C)C(C)C	13000
2) COC(=O)/C=C/c1ccc(O)c(OC)c1	14000
3) COc1cc(/C=C/C(=O)O)ccc1O [FERULATE]	12000
4) COc1cc(/C=C/C(=O)O[C@H]2CC[C@@]3(C)C(=CC[C@H]4[C@@H]5CC[C@H]([C@H](C)CC[C@@H](C)C(C)C)[C@@]5(C)CC[C@@H]43)C2)ccc1O	13000
5) CC[C@H](CC[C@@H](C)[C@H]1CC[C@H]2[C@@H]3CC[C@H]4C[C@@H](OC(=O)/C=C/c5ccc(O)c(OC)c5)CC[C@]4(C)[C@H]3CC[C@]12C)C(C)C	15000
6) COc1cc(/C=C/C(=O)O[C@H]2CC[C@@]3(C)[C@@H](CC[C@@H]4[C@@H]3CC[C@]3(C)[C@@H]([C@H](C)CC[C@@H](C)C(C)C)CC[C@@H]43)C2)ccc1O	18000

---

Assay: Antioxidant activity assessed as hydroxyl radical scavenging activity at 1.5 uM by ESR spin trapping assay
Assay type: physicochemical
Activity vs 20%: at or above is TRUE, below is FALSE.

1) COc1cc(/C=C/C(=O)O[C@H]2CC[C@@]3(C)C(=CC[C@H]4[C@@H]5CC[C@H]([C@H](C)CCCC(C)C)[C@@]5(C)CC[C@@H]43)C2)ccc1O	TRUE
2) CC[C@H](CC[C@@H](C)[C@H]1CC[C@H]2[C@@H]3CC[C@H]4C[C@@H](OC(=O)/C=C/c5ccc(O)c(OC)c5)CC[C@]4(C)[C@H]3CC[C@]12C)C(C)C	TRUE
3) CC[C@H](/C=C/[C@@H](C)[C@H]1CC[C@H]2[C@@H]3CC=C4C[C@@H](OC(=O)/C=C/c5ccc(O)c(OC)c5)CC[C@]4(C)[C@H]3CC[C@]12C)C(C)C	TRUE
4) COC(=O)/C=C/c1ccc(O)c(OC)c1	FALSE
5) COc1cc(/C=C/C(=O)O[C@H]2CC[C@@]3(C)C(=CC[C@H]4[C@@H]5CC[C@H]([C@H](C)CC[C@@H](C)C(C)C)[C@@]5(C)CC[C@@H]43)C2)ccc1O	TRUE

---

Each entry below lists one item and its recorded K value.
Assay: Antioxidant activity assessed as superoxide anion radical scavenging activity at 40 uM measured as rate constant recorded every min for 7 mins by nitroblue tetrazolium assay (reference value: 0.188 +/- 0.001 /min)
Format: physicochemical
MEASUREMENT NAME: K

1. CC[C@H](/C=C/[C@@H](C)[C@H]1CC[C@H]2[C@@H]3CC=C4C[C@@H](OC(=O)/C=C/c5ccc(O)c(OC)c5)CC[C@]4(C)[C@H]3CC[C@]12C)C(C)C	0.18 min⁻¹
2. COC(=O)/C=C/c1ccc(O)c(OC)c1	0.15 min⁻¹
3. CCOC(=O)/C=C/c1ccc(O)c(OC)c1 [ETHYL FERULATE]	0.14 min⁻¹

---

Assay: Antioxidant activity assessed as hydroxyl radical scavenging activity at 15 uM by ESR spin trapping assay
Format: physicochemical
Each entry below lists one item and its recorded Activity value.
MEASUREMENT NAME: Activity (%)

1. COc1cc(/C=C/C(=O)O[C@H]2CC[C@@]3(C)[C@@H](CC[C@@H]4[C@@H]3CC[C@]3(C)[C@@H]([C@H](C)CC[C@@H](C)C(C)C)CC[C@@H]43)C2)ccc1O	43
2. COc1cc(/C=C/C(=O)O)ccc1O [FERULATE]	40
3. COc1cc(/C=C/C(=O)O[C@H]2CC[C@@]3(C)C(=CC[C@H]4[C@@H]5CC[C@H]([C@H](C)CCCC(C)C)[C@@]5(C)CC[C@@H]43)C2)ccc1O	40

---

Assay: Antioxidant activity assessed as DPPH radical scavenging activity measured as rate constant after 10 secs by UV-visible spectrophotometry
Type: physicochemical
Details: 10 s
MEASUREMENT NAME: K (M⁻¹ s⁻¹)

1) CC[C@H](/C=C/[C@@H](C)[C@H]1CC[C@H]2[C@@H]3CC=C4C[C@@H](OC(=O)/C=C/c5ccc(O)c(OC)c5)CC[C@]4(C)[C@H]3CC[C@]12C)C(C)C	12000
2) COc1cc(/C=C/C(=O)O[C@H]2CC[C@@]3(C)C(=CC[C@H]4[C@@H]5CC[C@H]([C@H](C)CCCC(C)C)[C@@]5(C)CC[C@@H]43)C2)ccc1O	12000
3) Oc1cccc(O)c1O	120000
4) CCOC(=O)/C=C/c1ccc(O)c(OC)c1 [ETHYL FERULATE]	13000

---

Assay: Antioxidant activity assessed as DPPH radical scavenging activity at 1.67 uM measured as absorbance (t -> infinity) after 10 secs by UV-visible spectrophotometry
Assay type: physicochemical
Conditions: 10 s
Each entry below lists one item and its recorded Activity value.
MEASUREMENT NAME: Activity

1) CC[C@H](CC[C@@H](C)[C@H]1CC[C@H]2[C@@H]3CC=C4C[C@@H](OC(=O)/C=C/c5ccc(O)c(OC)c5)CC[C@]4(C)[C@H]3CC[C@]12C)C(C)C	1.298
2) COC(=O)/C=C/c1ccc(O)c(OC)c1	1.008
3) COc1cc(/C=C/C(=O)O[C@H]2CC[C@@]3(C)C(=CC[C@H]4[C@@H]5CC[C@H]([C@H](C)CC[C@@H](C)C(C)C)[C@@]5(C)CC[C@@H]43)C2)ccc1O	1.273

---

Each entry below lists one item and its recorded Activity value.
Experiment: Antioxidant activity assessed as hydroxyl radical scavenging activity at 5 uM by ESR spin trapping assay
Assay type: physicochemical
MEASUREMENT NAME: Activity (%)

1) COc1cc(/C=C/C(=O)O[C@H]2CC[C@@]3(C)[C@@H](CC[C@@H]4[C@@H]3CC[C@]3(C)[C@@H]([C@H](C)CC[C@@H](C)C(C)C)CC[C@@H]43)C2)ccc1O	34
2) CCOC(=O)/C=C/c1ccc(O)c(OC)c1 [ETHYL FERULATE]	36
3) COC(=O)/C=C/c1ccc(O)c(OC)c1	36
4) CC[C@H](/C=C/[C@@H](C)[C@H]1CC[C@H]2[C@@H]3CC=C4C[C@@H](OC(=O)/C=C/c5ccc(O)c(OC)c5)CC[C@]4(C)[C@H]3CC[C@]12C)C(C)C	30

---

Experiment: Antioxidant activity assessed as superoxide anion radical scavenging activity at 80 uM measured as absorbance (t > infinity) recorded every min for 7 mins by nitroblue tetrazolium assay (reference value: 1.9 +/- 0.01)
Assay type: physicochemical
Each entry below lists one item and its recorded Activity value.
MEASUREMENT NAME: Activity

1. COc1cc(/C=C/C(=O)O[C@H]2CC[C@@]3(C)[C@@H](CC[C@@H]4[C@@H]3CC[C@]3(C)[C@@H]([C@H](C)CC[C@@H](C)C(C)C)CC[C@@H]43)C2)ccc1O	1.47
2. COC(=O)/C=C/c1ccc(O)c(OC)c1	1.72
3. CCOC(=O)/C=C/c1ccc(O)c(OC)c1 [ETHYL FERULATE]	1.7

---

Each entry below lists one item and its recorded K value.
Assay: Antioxidant activity assessed as superoxide anion radical scavenging activity at 160 uM measured as rate constant recorded every min for 7 mins by nitroblue tetrazolium assay (reference value: 0.188 +/- 0.001 /min)
Format: physicochemical
MEASUREMENT NAME: K (min⁻¹)

1) CCOC(=O)/C=C/c1ccc(O)c(OC)c1 [ETHYL FERULATE]	0.13
2) COC(=O)/C=C/c1ccc(O)c(OC)c1	0.14
3) COc1cc(/C=C/C(=O)O[C@H]2CC[C@@]3(C)C(=CC[C@H]4[C@@H]5CC[C@H]([C@H](C)CC[C@@H](C)C(C)C)[C@@]5(C)CC[C@@H]43)C2)ccc1O	0.13

---

Assay: Antioxidant activity assessed as superoxide anion radical scavenging activity at 40 uM measured as rate constant recorded every min for 7 mins by nitroblue tetrazolium assay (reference value: 0.188 +/- 0.001 /min)
Type: physicochemical
MEASUREMENT NAME: K (min⁻¹)

1. CC[C@H](CC[C@@H](C)[C@H]1CC[C@H]2[C@@H]3CC[C@H]4C[C@@H](OC(=O)/C=C/c5ccc(O)c(OC)c5)CC[C@]4(C)[C@H]3CC[C@]12C)C(C)C	0.14
2. COc1cc(/C=C/C(=O)O[C@H]2CC[C@@]3(C)C(=CC[C@H]4[C@@H]5CC[C@H]([C@H](C)CCCC(C)C)[C@@]5(C)CC[C@@H]43)C2)ccc1O	0.17
3. COc1cc(/C=C/C(=O)O[C@H]2CC[C@@]3(C)C(=CC[C@H]4[C@@H]5CC[C@H]([C@H](C)CC[C@@H](C)C(C)C)[C@@]5(C)CC[C@@H]43)C2)ccc1O	0.17
4. COc1cc(/C=C/C(=O)O[C@H]2CC[C@@]3(C)[C@@H](CC[C@@H]4[C@@H]3CC[C@]3(C)[C@@H]([C@H](C)CC[C@@H](C)C(C)C)CC[C@@H]43)C2)ccc1O	0.13
5. COc1cc(/C=C/C(=O)O)ccc1O [FERULATE]	0.2
6. CC[C@H](CC[C@@H](C)[C@H]1CC[C@H]2[C@@H]3CC=C4C[C@@H](OC(=O)/C=C/c5ccc(O)c(OC)c5)CC[C@]4(C)[C@H]3CC[C@]12C)C(C)C	0.19
